- PROTOCOL SUMMARY: Stability of the analytes in rat plasma QC samples (short-term, autosampler, freeze-thaw, long-term)
- DETAILS: 1 ng mL^−1, room temperature for 6 h before sample preparation, n = 6
OBSERVED PROPERTY: Short-term stability Accuracy (%)
Response body: numeric value in %, unit text excluded.

Note to self: Short-term stability Accuracy recorded for Cc1coc2c1C(=O)C(=O)c1c-2ccc2c1CCCC2(C)C was 96.50

Data point: O=c1c(O)c(-c2ccc(O)cc2)oc2cc(O)cc(O)c12 ; Short-term stability Accuracy = 96.50

Note to self: Short-term stability Accuracy recorded for CC(C)(C)[C@]1(O)CC2OC(=O)CC23C(=O)OC2OC(=O)[C@H](O)C231 (stereo partly drawn) [BB, bilobalide] was 98.10

Short-term stability Accuracy reading for O=c1c(O)c(-c2ccc(O)c(O)c2)oc2cc(O)cc(O)c12 : 100.23

The value of Short-term stability Accuracy measured for the compound C[C@@H]1C(=O)O[C@H]2C[C@@]34[C@H]5C[C@@H](C(C)(C)C)[C@]36[C@@H](OC(=O)[C@@H]6O)O[C@@]4(C(=O)O5)[C@]21O [GA, ginkgolide A] turned out to be 100.59

Lab note: measured Short-term stability Accuracy of COc1cc(-c2oc3cc(O)cc(O)c3c(=O)c2O)ccc1O was 99.24

---

I'd be grateful if you could share measured Autosampler stability Accuracy for these entries.
- PROTOCOL SUMMARY: Stability of the analytes in rat plasma QC samples (short-term, autosampler, freeze-thaw, long-term)
- DETAILS: 100 ng mL^−1, room temperature for 12 h in the autosampler after sample preparation, n = 6
Reply numerically in %, unit not repeated.

Entry CC(C)(C)[C@]1(O)CC2OC(=O)CC23C(=O)OC2OC(=O)[C@H](O)C231 (stereo partly drawn) [BB, bilobalide] ; Autosampler stability Accuracy = 97.44

Sure, the documented Autosampler stability Accuracy for O=c1c(O)c(-c2ccc(O)c(O)c2)oc2cc(O)cc(O)c12 [QCT, quercetin] is 94.22

# Autosampler stability Accuracy of COc1cc(-c2oc3cc(O)cc(O)c3c(=O)c2O)ccc1O [ISR, isorhamnetin] = 98.34

C[C@@H]1C(=O)O[C@H]2C[C@@]34[C@H]5C[C@@H](C(C)(C)C)[C@]36[C@@H](OC(=O)[C@@H]6O)O[C@@]4(C(=O)O5)[C@]21O [GA, ginkgolide A] yielded Autosampler stability Accuracy of 96.83

Looking up O=c1c(O)c(-c2ccc(O)cc2)oc2cc(O)cc(O)c12 [KMF, kaempferol] , I see its Autosampler stability Accuracy listed as 95.96

Measured Autosampler stability Accuracy of Cc1coc2c1C(=O)C(=O)c1c-2ccc2c1CCCC2(C)C [TSIIA, tanshinone IIA] : 99.15

---

Exercise: state measured Short-term stability Accuracy for each of the compounds provided.
- PROTOCOL SUMMARY: Stability of the analytes in rat plasma QC samples (short-term, autosampler, freeze-thaw, long-term)
- DETAILS: 10 ng mL^−1, room temperature for 6 h before sample preparation, n = 6
Output spec: scalar in %, unitless text.

For O=c1c(O)c(-c2ccc(O)cc2)oc2cc(O)cc(O)c12 [KMF, kaempferol] the compound record lists Short-term stability Accuracy as 101.22

Short-term stability Accuracy measured on CC(C)(C)[C@]1(O)CC2OC(=O)CC23C(=O)OC2OC(=O)[C@H](O)C231 (stereo partly drawn) [BB, bilobalide] = 99.78

The reported Short-term stability Accuracy of the compound O=c1c(O)c(-c2ccc(O)c(O)c2)oc2cc(O)cc(O)c12 [QCT, quercetin] was 97.45

Recorded result, COc1cc(-c2oc3cc(O)cc(O)c3c(=O)c2O)ccc1O [ISR, isorhamnetin] , Short-term stability Accuracy: 96.28

Sure, the documented Short-term stability Accuracy for C[C@@H]1C(=O)O[C@H]2C[C@@]34[C@H]5C[C@@H](C(C)(C)C)[C@]36[C@@H](OC(=O)[C@@H]6O)O[C@@]4(C(=O)O5)[C@]21O [GA, ginkgolide A] is 102.54

Query Cc1coc2c1C(=O)C(=O)c1c-2ccc2c1CCCC2(C)C [TSIIA, tanshinone IIA] yields Short-term stability Accuracy of 101.22
